# TARGET: T1, recombinant human CD39 (R&D Systems) (human, UniProt P49961 38-478)
# T1 construct: bought; also called CD39 antigen (R&D Systems); ENTPD1
# T1 sequence: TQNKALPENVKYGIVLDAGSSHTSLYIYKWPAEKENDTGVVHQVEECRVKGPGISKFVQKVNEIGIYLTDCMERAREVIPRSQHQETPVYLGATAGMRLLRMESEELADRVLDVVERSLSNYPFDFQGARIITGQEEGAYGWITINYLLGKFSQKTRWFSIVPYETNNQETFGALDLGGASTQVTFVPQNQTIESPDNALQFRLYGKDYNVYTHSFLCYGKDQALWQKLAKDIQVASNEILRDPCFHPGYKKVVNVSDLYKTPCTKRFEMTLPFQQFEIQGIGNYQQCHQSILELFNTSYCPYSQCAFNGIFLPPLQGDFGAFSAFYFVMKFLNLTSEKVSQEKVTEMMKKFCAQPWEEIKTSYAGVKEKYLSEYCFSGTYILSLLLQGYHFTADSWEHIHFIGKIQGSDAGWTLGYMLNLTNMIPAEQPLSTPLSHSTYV
# ASSAY_PROCEDURE: BLI (Octet QK384); antibody on anti-mouse IgG Fc sensor, recombinant human CD39 in solution
METRIC_NAME: koff (s⁻¹)
Kindly answer with a numeric value in s⁻¹, unit omitted.

Data request, read-out koff, for anti-CD39 monoclonal antibody 5-13A (antibody, V domains shown, purified mouse hybridoma antibody, IgG2a isotype; also called R21-5-13A; R29-5-13A) VH: QVQLQQSGPELVKPGASVRISCKASGYTFTGYYVHWVKQRPGQGLEWIGWIYPGNVNTKYNEKFKAKATLTADKSSSTGYMQLSRLTSEDSAVYFCARSPYYGTTYYYTMDYWGQGTSVTVSS VL: EIVLTQSPAFMAASPGEKVTITCSVSLIISSRNLHWYQQKSETSPKPWIYGTSNLASGVPVRFSGSGSGTSYSLTISSMEAEDAATYYCQQWSDYPLTFGSGTKLEIK 0.000159
